Measured values drawn from paper PMC9782245 for this set.

These records show GI50 for K562 cells.
ATTRIBUTE MEASURED: GI50 (µM)

compound="Cn1c(=O)n(C2CC2)c2nc(Nc3ccc(N4CCNCC4)cc3)ncc21 [14b]" attribute_measured=GI50 readout_value=45.3

(a) Cn1c(=O)n([C@H]2CC[C@H](C)CC2)c2nc(Nc3ccc(N4CCNCC4)cc3)ncc21 [14g]
(b) Cn1c(=O)n(C2CCOCC2)c2nc(Nc3ccc(N4CCNCC4)cc3)ncc21 [14k]
QUERY: Which of the two items, a and b , has the greater recorded GI50? Your choice should be expressed through its label.
RESULT: b
(b: 18.2 µM, a: 1.26 µM)

----------
target: FLT3-ITD (Homo sapiens, UniProt P36888, ITD); assay: Kinase inhibition assay FLT3-ITD; type: biochemical; conditions: at least duplicate experiments; read-out: IC50 FLT3-ITD
Sequence (P36888 27-993, change not shown): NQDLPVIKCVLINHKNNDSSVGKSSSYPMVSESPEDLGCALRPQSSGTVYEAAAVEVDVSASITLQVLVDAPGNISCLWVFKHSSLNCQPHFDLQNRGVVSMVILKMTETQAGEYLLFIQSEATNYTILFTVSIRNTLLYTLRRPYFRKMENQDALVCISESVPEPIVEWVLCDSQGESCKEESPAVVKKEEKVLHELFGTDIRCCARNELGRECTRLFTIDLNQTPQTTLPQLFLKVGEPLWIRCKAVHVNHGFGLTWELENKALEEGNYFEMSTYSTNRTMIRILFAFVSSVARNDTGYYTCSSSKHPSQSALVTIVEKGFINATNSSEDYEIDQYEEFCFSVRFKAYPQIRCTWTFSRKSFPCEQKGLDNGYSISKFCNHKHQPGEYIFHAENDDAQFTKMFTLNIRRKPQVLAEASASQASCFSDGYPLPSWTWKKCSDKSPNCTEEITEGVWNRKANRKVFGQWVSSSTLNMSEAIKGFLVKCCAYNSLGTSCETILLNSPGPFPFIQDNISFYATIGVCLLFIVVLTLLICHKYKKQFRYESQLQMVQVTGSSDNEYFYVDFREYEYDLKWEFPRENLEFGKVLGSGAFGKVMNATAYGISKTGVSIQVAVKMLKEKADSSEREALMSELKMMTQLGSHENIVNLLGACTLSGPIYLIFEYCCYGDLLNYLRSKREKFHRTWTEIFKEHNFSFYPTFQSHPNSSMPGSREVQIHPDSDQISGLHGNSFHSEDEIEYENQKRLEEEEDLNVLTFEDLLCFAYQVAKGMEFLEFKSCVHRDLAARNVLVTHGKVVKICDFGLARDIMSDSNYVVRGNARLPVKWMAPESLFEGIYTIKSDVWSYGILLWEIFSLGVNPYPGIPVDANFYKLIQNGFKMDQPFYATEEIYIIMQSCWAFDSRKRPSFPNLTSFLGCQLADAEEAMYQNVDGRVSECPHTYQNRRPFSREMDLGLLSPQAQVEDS
pIC50: −log10 of the molar value.
ATTRIBUTE MEASURED: pIC50

Solved cases below.
compound="Cn1c(=O)n(C2CCCC2)c2nc(Nc3ccc(N4CCNCC4)cc3)ncc21 [14d]" readout_value=7.08
compound="Cn1c(=O)n(-c2cccc3ccccc23)c2nc(Nc3ccc(N4CCNCC4)cc3)ncc21 [14s]" readout_value=6.07

(A) O=c1[nH]c2cnc(Nc3ccc(N4CCNCC4)cc3)nc2n1C1CCCCCC1 [13d]
(B) Cn1c(=O)n(C2CCCCCCC2)c2nc(Nc3ccc(N4CCNCC4)cc3)ncc21 [14i]
(C) CC1CCC(n2c(=O)[nH]c3cnc(Nc4ccc(N5CCNCC5)cc4)nc32)CC1 (stereo not drawn) [13c]
(D) CC1CCC(n2c(C(F)(F)F)nc3cnc(Nc4ccc(N5CCNCC5)cc4)nc32)CC1 (stereo not drawn) [12c]
(E) CC(C)n1c(=O)n(C2CCCCCC2)c2nc(Nc3ccc(N4CCNCC4)cc3)ncc21 [15d]
QUERY: // smallest pIC50 at index 0, largest at the end Answer format: the labels, ordered as requested.
RESULT: C, A, D, E, B
(C: 5.98, A: 6.37, D: 7.07, E: 7.57, B: 7.92)

----------
biological target: CDK4/D1 (Homo sapiens, UniProt P11802); assay: Kinase inhibition assay CDK4/D1; type: biochemical; conditions: at least duplicate experiments; read-out: IC50 CDK4/D1
Sequence (P11802 whole entry): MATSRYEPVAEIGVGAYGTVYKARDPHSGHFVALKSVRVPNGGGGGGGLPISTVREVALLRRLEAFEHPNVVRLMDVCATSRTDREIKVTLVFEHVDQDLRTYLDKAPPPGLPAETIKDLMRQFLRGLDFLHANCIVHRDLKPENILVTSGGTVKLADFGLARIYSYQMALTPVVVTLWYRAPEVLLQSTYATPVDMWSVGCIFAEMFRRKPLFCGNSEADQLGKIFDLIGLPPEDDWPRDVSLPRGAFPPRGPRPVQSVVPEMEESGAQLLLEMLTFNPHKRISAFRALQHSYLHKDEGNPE
Sequence (P24385 whole entry partner): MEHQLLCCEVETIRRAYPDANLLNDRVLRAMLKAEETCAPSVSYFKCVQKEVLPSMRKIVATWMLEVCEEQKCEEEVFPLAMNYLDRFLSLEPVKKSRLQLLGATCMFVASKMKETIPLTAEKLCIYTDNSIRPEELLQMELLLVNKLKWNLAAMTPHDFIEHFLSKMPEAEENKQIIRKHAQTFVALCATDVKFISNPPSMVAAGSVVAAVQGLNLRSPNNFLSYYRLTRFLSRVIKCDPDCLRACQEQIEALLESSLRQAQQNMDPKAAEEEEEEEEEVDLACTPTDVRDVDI
ATTRIBUTE MEASURED: IC50 (nM)

molecule="CC(C)n1c(=O)n(C2CCCCCC2)c2nc(Nc3ccc(N4CCNCC4)cc3)ncc21 [15d]" attribute_measured=IC50 measurement_unit=nM readout_value=1100

(P) FC(F)(F)c1nc2cnc(Nc3ccc(N4CCNCC4)cc3)nc2n1C1CCCCCC1 [12d]
(Q) Cn1c(=O)n(C=Cc2ccc(F)cc2)c2nc(Nc3ccc(N4CCNCC4)cc3)ncc21 [14t]
(R) Cn1c(=O)n(C2CCC2)c2nc(Nc3ccc(N4CCNCC4)cc3)ncc21 [14c]
(S) CC(C)n1c(=O)n(C2CCCCC2)c2nc(Nc3ccc(N4CCNCC4)cc3)ncc21 [15b]
QUERY: // smallest IC50 at index 0, largest at the end Answer format: the labels, ordered as requested.
RESULT: P, Q, R, S
(P: 22 nM, Q: 216 nM, R: 524 nM, S: 2120 nM)
